Documented Population Normal (%) across a set of compounds
- Tested on: Fibroblast
- run-description: Multiplex assay against human fibroblast
- Type: toxicity, cell-based
- cond: 48 h, 10 µM, compound concentration 10 uM, replicate 1
Non-standard residues stand in square brackets, D forms with d. Residues, ends and D or L forms follow the SMILES beside them.
Your answer should be a plain number; it is taken to be in %.

# compound, quantitative-result
rows = [
    ("CSc1nc(NC2CCCC2)c([N+](=O)[O-])c(NC2CCCC2)n1 [GS-39783]", 97),
]

Population Normal (%) for O=C(O)CCC/C=C\CC1C(O)CC(O)C1/C=C/C(O)COc1cccc(Cl)c1 (stereo not drawn) [CLOPROSTENOL] is 86

Quick note, Population Normal (%) for `N[C@](CC1c2ccccc2Oc2ccccc21)(C(=O)O)[C@H]1C[C@@H]1C(=O)O` landed at 94

Entry under test: CCCCCCNC(=O)Nc1ccc(S(=O)(=O)Nc2ccc(CCNC[C@H](O)COc3ccc(O)cc3)cc2)cc1 [L-755507] . Its Population Normal (%) was 93

Sure, the documented Population Normal (%) for CC(C)C[C@@H]1NC(=O)[C@@H](C(C)C)NC(=O)[C@@H]2CCCN2C(=O)[C@@H](CC(=O)O)NC(=O)[C@@H](Cc2c[nH]c3ccccc23)NC1=O [BQ-123] (cyclo(L[dW][dD]P[dV])) is 94

Population Normal (%) reading for O=c1ccc2ccc(OCCCCN3CCN(c4cccc5sccc45)CC3)cc2[nH]1 [BREXPIPRAZOLE] : 65

Form field Population Normal (%), entry `C[C@@H]1CC(=O)Nc2cccc(-c3ccc4c(c3)c(-c3cnn(C)c3)nn4C)c2N1` : 96

So, `CCc1nn2c(C)cc(C)nc2c1Cc1ccc(-c2nnc(C3CCNCC3)o2)cc1` ? Its Population Normal (%) was 90

Lab note: Cl.Cl.OCCOCCN1CCN(C(c2ccccc2)c2ccc(Cl)cc2)CC1 (stereo not drawn) [HYDROXYZINE HYDROCHLORIDE] gave Population Normal (%) of 95

###

- Test system: Fibroblast
- run-description: Multiplex assay against human fibroblast
- Type: toxicity, cell-based
- cond: 24 h, 10 µM, compound concentration 10 uM, replicate 1
measured-property: Population Hoechst High Intensity Objects (%)
Quick note: give the figure in %, leave out the unit.

Worked cases, Population Hoechst High Intensity Objects (%) given:
# molecule, measure-unit, quantitative-result
data = [
    ("C=CCN1C[C@H](C(=O)N(CCCN(C)C)C(=O)NCC)C[C@@H]2c3cccc4[nH]cc(c34)C[C@H]21 [CABERGOLINE]", "%", 1),
    ("OCCCNc1cc(-c2ccnc(Nc3cccc(Cl)c3)n2)ccn1", "%", 11),
    ("CC(F)(F)CN1CCOc2c(nn(-c3ccccc3Cl)c2-c2ccc(Cl)cc2)C1=O", "%", 0),
    ("CN1CCN2c3ccccc3Cc3ccccc3C2C1.Cl (centres undefined) [MIANSERIN HYDROCHLORIDE]", "%", 5),
]

Simply: `COc1cc(C(=O)N2CC[C@@H](O)[C@@H](N)C2)cc2nc(-c3cc4ccccc4n3CC3CC3)n(C)c12.Cl` , Fibroblast, Population Hoechst High Intensity Objects (%) = 7

The measured Population Hoechst High Intensity Objects (%) that CC(C)C[C@H](CO)Nc1nc(S[C@@H](C)c2ccccc2)nc2nc(N)sc12 [AZD-8797] showed for Fibroblast is 1

I looked up `CN1CCN(c2ccc(Nc3c4ccccc4nc4ccccc34)cc2)CC1.Cl.Cl.O` and its Population Hoechst High Intensity Objects (%) for Fibroblast was 16

###

- System: Fibroblast
- run-description: Multiplex assay against human fibroblast
- Format: toxicity, cell-based
- cond: 12 h, 1 µM, compound concentration 1 uM, replicate 2
Each entry below lists one item and its recorded Population Hoechst High Intensity Objects (%) value.
Give your result in % as a bare value.

Lab note: `CCc1nn2c(C)cc(C)nc2c1Cc1ccc(-c2nnc(C3CCNCC3)o2)cc1` gave Population Hoechst High Intensity Objects (%) of 6

The compound identified as `Cn1cc(C(=O)OCC2CCN(CCNS(C)(=O)=O)CC2)c2ccccc21` registered its Population Hoechst High Intensity Objects (%) at 4

The reported Population Hoechst High Intensity Objects (%) of the compound `CC(C)(O)C(=O)N1CCN(c2ccc(C(F)(F)F)c(C3=C(c4c[nH]c5ccccc45)C(=O)NC3=O)c2)CC1` was 5

Looking up `CC(C)C[C@H](CO)Nc1nc(S[C@@H](C)c2ccccc2)nc2nc(N)sc12` , I see its Population Hoechst High Intensity Objects (%) listed as 4

Per the record, `Cc1cc(NC(=O)NCCN2CCC(O)(Cc3ccccc3)CC2)c2ccccc2n1` has Population Hoechst High Intensity Objects (%) of 9

###

- System: Fibroblast
- run-description: Multiplex assay against human fibroblast
- Type: toxicity, cell-based
- cond: 12 h, 1 µM, compound concentration 1 uM, replicate 1
Non-standard residues stand in square brackets, D forms with d. Residues, ends and D or L forms follow the SMILES beside them.
As shown below, each of these compounds has a reported Total Cell Count value.
Lab note: jot down the number only; don't add units.

# compound, Total Cell Count
measured = [
    ("O=C(Nc1cc(-c2ccccc2)nn1-c1ccccc1F)c1ccc([N+](=O)[O-])cc1", 138),
    ("O=c1nc2[nH]c3ccccc3nc-2c(=O)[nH]1", 193),
    ("COC(c1ccccc1)(c1ccccc1)[C@H](Oc1nc(C)cc(C)n1)C(=O)O", 97),
    ("CC(C)C[C@@H]1NC(=O)[C@@H](C(C)C)NC(=O)[C@@H]2CCCN2C(=O)[C@@H](CC(=O)O)NC(=O)[C@@H](Cc2c[nH]c3ccccc23)NC1=O [BQ-123] (cyclo(L[dW][dD]P[dV]))", 105),
    ("CC(C)C[C@H](CO)Nc1nc(S[C@@H](C)c2ccccc2)nc2nc(N)sc12", 146),
]

Given item `CC(C)(C)c1ccc(CSc2cnn(C(C)(C)C)c(=O)c2Cl)cc1` , the value recorded as its Total Cell Count is 148

Lab note: measured Total Cell Count of `COCCn1c(C)c(C)s/c1=N\C(=O)C1C(C)(C)C1(C)C` was 136

# Total Cell Count of `S=C(NCCCc1c[nH]cn1)NCCCN(Cc1ccc(Cl)c(Cl)c1)c1ccc(Br)cn1` = 142

Quick note, Total Cell Count for CCC(=O)OCC(=O)[C@@]1(OC(=O)CC)[C@@H](C)C[C@H]2[C@@H]3CCC4=CC(=O)C=C[C@]4(C)[C@@]3(Cl)[C@@H](O)C[C@@]21C [BECLOMETHASONE DIPROPIONATE] landed at 135

Please fill in: Total Cell Count reported for `C[C@@H]1CC(=O)Nc2cccc(-c3ccc4c(c3)c(-c3cnn(C)c3)nn4C)c2N1` = 115

According to the records, this compound `COc1cc(C(=O)N2CC[C@@H](O)[C@@H](N)C2)cc2nc(-c3cc4ccccc4n3CC3CC3)n(C)c12.Cl` displays Total Cell Count of 160

Record summary for `CCCCCCNC(=O)Nc1ccc(S(=O)(=O)Nc2ccc(CCNC[C@H](O)COc3ccc(O)cc3)cc2)cc1` : reported Total Cell Count = 198

According to the records, this compound O=C(O)CCC/C=C\CC1C(O)CC(O)C1/C=C/C(O)COc1cccc(Cl)c1 (stereo unspecified) displays Total Cell Count of 153

Summary for this compound, `COc1ccc2[nH]c(I)c(CCNC(C)=O)c2c1` : Total Cell Count is 137

The compound `COc1c(Nc2ccc(S(C)(=O)=O)nc2C)ncnc1OC1CCN(C(=O)OC(C)C)CC1` showed Total Cell Count equal to 133

The recorded Total Cell Count for entry `Cc1cc(O)c(-c2ccc([C@@H](C)CN(C)C)cc2)c2c1[nH]c(=O)c1sccc12` equals 145

###

- Test system: U2OS
- run-description: Multiplex assay against U2OS
- Assay type: toxicity, cell-based
- cond: human, 12 h, 1 µM, compound concentration 1 uM, replicate 1
measured-property: Population Normal (%)
Supply the numeric figure in %, leaving out any unit text.

Sample answers from the record:
# compound, Population Normal (%)
rows = [
    ("C[C@H](NC(=O)CNC(=O)c1cccc(Cl)c1)c1ccccc1", 96),
    ("Nc1nc(CC(=O)Nc2ccc(CCNC[C@H](O)c3ccccc3)cc2)cs1 [MIRABEGRON]", 98),
    ("CCCCCCNC(=O)Nc1ccc(S(=O)(=O)Nc2ccc(CCNC[C@H](O)COc3ccc(O)cc3)cc2)cc1 [L-755507]", 95),
]

Now take the following compound into account.
For this compound ( Cc1cc(-c2ccc3c(c2)CC[C@H]3N2CC3(CCN(C(=O)Cc4cn5cc(C)sc5n4)CC3)C2)ncn1 [PF-5190457] ), measured Population Normal (%) is 98
